growth for assorted compounds
Test system: SNB-19 CNS
Test Method Notes: NCI-60 one-dose screen, 48 h (100 = growth as untreated, 0 = no growth, -100 = all killed)
Protocol Conditions: 10 µM unless noted
About 83,000 compounds went through this panel and 20% of them were active in at least one assay; those are over-represented in the sample as a whole.
Note: unit % is implicit; provide only the numeric part.

For orientation, consider the following solved cases.
O=C(Nc1ccccc1C(=O)N/N=C(\c1ccccc1)c1ccccn1)c1ccccc1 :: 27.9
COc1ccc(C(c2cc(OC)c(OC)c(OC)c2)n2ccnc2)cc1O (stereo not given) :: 30.5
COc1ccc(C/C(C)=C(/c2ccc(OCCN3CCCCCC3)cc2)c2ccc(OC(=O)c3ccccc3)cc2)cc1 :: 102

Problem: Look at this compound and give its reported growth. Cc1c(O)c(O)cc2c3c(oc12)CC(c1ccc2c(c1)OCO2)CC3=O (stereo not given)
Solution: 101

Problem: Look at this compound and give its reported growth. COc1ccc(-c2cc3cnc4ccccc4c3oc2=O)cc1
Solution: 99

Taken from PubChem BioAssay (NCI).
